All values here come from the supplement of paper PMC10567573.

Let's look at some sequences and their measured protein stability index.
assayProcedure: protein stability index of a GFP-peptide fusion (GPS, HEK-293T) (PSI 1-6); higher = more stable;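 note: 24-mer peptide tiles fused after GFP, lentivirally expressed, FACS-sorted into six equal bins by GFP/DsRed ratio, decoded by Illumina sequencing, PSI is the read-weighted mean bin number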
experimentalParameters: treatment: MLN4924 1 uM, 8 h; c terminus: a fixed tail appended
quantityKind: protein stability index

• KYREAARLEINVLKKIKEKDKENK [CLK3] = 4.25
• SLGVDTLPPPDPNPPRAEFNYSVG [APBB1IP] = 4.44
• ETPEWLDSDSCQKCDQPFFWNFKQ [WDFY2] = 3.19
• DDLVPKGKKFLLLSINRYERKKNL [ALG2] = 2.67
• ELRLYKQQVKKLEKALKKNVKLQE [CEP70] = 3.08
• KEFQQVFIPECNDDGTYSQVQCHS [SMOC2] = 4.38
• QRFRLDNLLNMAYGVKSPLSLIAR [ELAVL3] = 2.19
• KLTDKHETVVSYLPLSHIAAQMMD [ACSBG2] = 2.98
• KVVHAVDGTAENGIHPLSSSEVDE [PALM] = 5.47
• DTFAAYTREQLYQAIFHAVDQYLA [MCOLN1] = 2.42
• KCQVGFSSSDLVMRARDSVYHIEC [ISL2] = 2.3
• TDDPTAGRSNAPITAPTEVEVMDE [CSNK1G3] = 5.51
• LEQFLAILPKELQAWVQKHHPENG [ZNF396] = 2.79
